# key: entry, value: inhibition at 100 mg/kg
Test system: agrégation plaquettaire à l'A.D.P.
assayExplanation: ADP-induced platelet aggregation in plasma of orally treated rats (ex vivo)
Design: species or system rats de souche Wistar
conditionContext: Rattus norvegicus, 100 mg/kg oral, 3 hours after treatment, versus control, 10 µM A.D.P., read-out: Pourcentage d'inhibition A.D.P.

>  <sampleSmiles>
O=c1[nH]c(-c2ccccc2)cc2sccc12

>  <targetUnderTest>
agrégation plaquettaire à l'A.D.P.

>  <inhibition at 100 mg/kg>
62%

$$$$
>  <sampleSmiles>
O=c1[nH]c(-c2ccccc2)cc2occc12

>  <targetUnderTest>
agrégation plaquettaire à l'A.D.P.

>  <inhibition at 100 mg/kg>
59.8%

$$$$
>  <sampleSmiles>
O=c1[nH]c(-c2ccc([N+](=O)[O-])cc2)cc2sccc12

>  <targetUnderTest>
agrégation plaquettaire à l'A.D.P.

>  <inhibition at 100 mg/kg>
60.4%

$$$$

Value of inhibition at 100 mg/kg reported for the compound "O=c1[nH]c(-c2ccccc2Cl)cc2sccc12" is 58.8%

Measured inhibition at 100 mg/kg of "O=c1[nH]c(-c2ccc(F)cc2)cc2sccc12" : 60.5%

For reference, reported inhibition at 100 mg/kg for "O=c1[nH]c(-c2ccc(Cl)cc2)cc2sccc12" stands at 61.2%

The recorded inhibition at 100 mg/kg for "Cc1ccc(-c2cc3sccc3c(=O)[nH]2)cc1" is 62.6%

# inhibition at 100 mg/kg of "O=c1[nH]c(-c2ccccc2Cl)cc2ccsc12" = 60.1%

In plain terms, "O=c1[nH]c(-c2cccnc2)cc2sccc12" has a documented inhibition at 100 mg/kg of 60.8%

Looking up "Cc1cc2c(=O)[nH]c(-c3ccccc3)cc2s1" , I found its inhibition at 100 mg/kg recorded as 61.5%

// field: inhibition at 100 mg/kg; key: "O=c1[nH]c(-c2ccccc2[N+](=O)[O-])cc2sccc12" ; value = 59.1%

====

Test system: oedème localisé provoqué par la carragénine
assayExplanation: Carrageenan-induced localised paw oedema
Type: in vivo
conditionContext: rat, 100 mg/kg oral (1 h before, at injection, 1 h and 2.5 h after), 3 h after carrageenan; read-out: pourcentage d'activité anti-inflammatoire 3ème heure
Protocol: Une solution de carragénine (0,1 ml) à 1 % est injectée dans les fléchisseurs métatarsiens de la patte postérieure droite du rat au temps O. Les animaux du lot traité reçoivent en outre, par la voie orale, 100 mg par kg du dérivé à tester respectivement 1 heure avant, en même temps que l'injection de l'agent phlogogène, puis 1 heure et 2 heures et demi après. […]
Measured inhibition in vivo at 100 mg/kg accompanies every entry in the list below.
Field: value (include unit after the number)

Some solved cases for reference:
>  <sampleSmiles>
O=c1[nH]c(-c2ccccc2)cc2sccc12

>  <targetUnderTest>
oedème localisé provoqué par la carragénine

>  <inhibition in vivo at 100 mg/kg>
45%

$$$$
>  <sampleSmiles>
COc1ccc(-c2cc3sccc3c(=O)[nH]2)cc1OC

>  <targetUnderTest>
oedème localisé provoqué par la carragénine

>  <inhibition in vivo at 100 mg/kg>
48%

$$$$
>  <sampleSmiles>
O=c1[nH]c(-c2ccccc2)cc2ccsc12

>  <targetUnderTest>
oedème localisé provoqué par la carragénine

>  <inhibition in vivo at 100 mg/kg>
48%

$$$$

Entry "Cc1ccc(-c2cc3sccc3c(=O)[nH]2)cc1" , inhibition in vivo at 100 mg/kg reported as 46%

Recorded result, "O=c1[nH]c(-c2cccc(C(F)(F)F)c2)cc2sccc12" , inhibition in vivo at 100 mg/kg: 49%

The molecule identified as "O=c1[nH]c(-c2ccc(F)cc2)cc2sccc12" registered its inhibition in vivo at 100 mg/kg at 46%

====

System: agrégation plaquettaire à l'A.D.P.
assayExplanation: ADP-induced platelet aggregation in plasma of orally treated rats (ex vivo)
Set-up: species or system rats de souche Wistar
conditionContext: Rattus norvegicus, 100 mg/kg oral, 3 hours after treatment, versus control, 10 µM A.D.P., read-out: Pourcentage d'inhibition A.D.P.
Reported inhibition at 100 mg/kg values for a set of molecules
Answer in %, number only, no unit symbol.

>  <molecule>
COc1ccc(-c2cc3sccc3c(=O)[nH]2)cc1 [dérivé 6]

>  <valueUnit>
%

>  <measValue>
62.2

$$$$
>  <molecule>
COc1ccc(-c2cc3sccc3c(=O)[nH]2)cc1OC [dérivé 7]

>  <valueUnit>
%

>  <measValue>
61.7

$$$$
>  <molecule>
O=c1[nH]c(-c2ccccc2)cc2ccsc12 [dérivé 15, Phényl-5 thiéno(2,3-c)pyridone-7]

>  <valueUnit>
%

>  <measValue>
62.5

$$$$
>  <molecule>
O=c1[nH]c(-c2ccccc2)cc2sc(Cl)cc12 [dérivé 12]

>  <valueUnit>
%

>  <measValue>
60.6

$$$$
>  <molecule>
O=c1[nH]c(-c2cccc(C(F)(F)F)c2)cc2sccc12 [dérivé 11]

>  <valueUnit>
%

>  <measValue>
60.1

$$$$

In the following, a different molecule is considered.
The reported inhibition at 100 mg/kg of the molecule COc1cc(-c2cc3sccc3c(=O)[nH]2)cc(OC)c1OC [dérivé 8] was 60.4

====

Test system: oedème localisé provoqué par la carragénine
assayExplanation: Carrageenan-induced localised paw oedema
Type: in vivo
conditionContext: rat, 100 mg/kg oral (1 h before, at injection, 1 h and 2.5 h after), 3 h after carrageenan; read-out: pourcentage d'activité anti-inflammatoire 3ème heure
Description: Une solution de carragénine (0,1 ml) à 1 % est injectée dans les fléchisseurs métatarsiens de la patte postérieure droite du rat au temps O. Les animaux du lot traité reçoivent en outre, par la voie orale, 100 mg par kg du dérivé à tester respectivement 1 heure avant, en même temps que l'injection de l'agent phlogogène, puis 1 heure et 2 heures et demi après. […]
Below, each of the molecules is paired with its reported inhibition in vivo at 100 mg/kg value.
Give the quantity in %, number only.

Use the examples below as a reference point.
>  <sampleSmiles>
O=c1[nH]c(-c2ccccc2)cc2occc12

>  <measValue>
49

$$$$
>  <sampleSmiles>
O=c1[nH]c(-c2ccc(Cl)cc2)cc2sccc12

>  <measValue>
48

$$$$
>  <sampleSmiles>
O=c1[nH]c(-c2ccccc2Cl)cc2ccsc12

>  <measValue>
47

$$$$
>  <sampleSmiles>
COc1cc(-c2cc3sccc3c(=O)[nH]2)cc(OC)c1OC

>  <measValue>
45

$$$$
>  <sampleSmiles>
O=c1[nH]c(-c2ccccc2)cc2sc(Cl)cc12

>  <measValue>
46

$$$$

// inhibition in vivo at 100 mg/kg lookup, molecule = "Cc1cc2c(=O)[nH]c(-c3ccccc3)cc2s1" , result: 47

The reported value for "COc1ccc(-c2cc3sccc3c(=O)[nH]2)cc1" in terms of inhibition in vivo at 100 mg/kg is 49

====

Test system: oedème localisé provoqué par la carragénine
assayExplanation: Carrageenan-induced localised paw oedema
Type: in vivo
conditionContext: rat, 100 mg/kg oral (1 h before, at injection, 1 h and 2.5 h after), 3 h after carrageenan; read-out: pourcentage d'activité anti-inflammatoire 3ème heure
Each record here notes measured inhibition in vivo at 100 mg/kg.

>  <sampleSmiles>
O=c1[nH]c(-c2ccccc2Cl)cc2sccc12

>  <targetUnderTest>
oedème localisé provoqué par la carragénine

>  <inhibition in vivo at 100 mg/kg>
45%

$$$$

Given item "O=c1[nH]c(-c2ccc([N+](=O)[O-])cc2)cc2sccc12" , the value recorded as its inhibition in vivo at 100 mg/kg is 51%

// inhibition in vivo at 100 mg/kg lookup, compound = "O=c1[nH]c(-c2ccccc2[N+](=O)[O-])cc2sccc12" , result: 46%

Item: "O=c1[nH]c(-c2cccnc2)cc2sccc12" | inhibition in vivo at 100 mg/kg: 47%

Measured values drawn from patent EP0006772A1 for this set.
